# credit: patent US20250282723A1

Target: aggregated Aβ (1-42) peptides (Homo sapiens)
Construct: Synthetic Aβ (1-42) peptide was purchased from Biopeptide, Co LLC; purchased Biopeptide, Co LLC (San Diego, California); host or cells: chemical synthesis
Sequence (P05067 672-713): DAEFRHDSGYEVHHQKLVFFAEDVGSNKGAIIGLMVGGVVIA
Assay: Fluorescence excitation/emission and fluorescence enhancement of probes bound versus unbound to aggregated Aβ (1-42) peptides
Type: binding
Details: aggregated Aβ (1-42) 5 μM, probe 4 μM, 5% DMSO in nanopure water
Would you mind telling me the reported Ex (λmax) (with Aβ) of each entry?
Remember to follow the number with its unit.

QUERY: Given COCCOCCOCCNC(=O)C(C#N)=Cc1ccc2cc(N3CCCCC3)ccc2c1 (mixture of isomers) , state its recorded Ex (λmax) (with Aβ).
RESULT: 421 ± 4 nm

QUERY: Please give the measured Ex (λmax) (with Aβ) for this molecule: COCCOCCOCCNC(=O)C(C#N)=C(c1ccc2cc(N3CCCCC3)ccc2c1)C(F)(F)F (mixture of isomers)
RESULT: 410 ± 5 nm

QUERY: What value of Ex (λmax) (with Aβ) has been reported for the following molecule? CCC1CCCCN1c1ccc2cc(/C=C(\C#N)C(=O)NCCOCCOCCOC)ccc2c1 (racemic)
RESULT: 443 ± 5 nm

QUERY: Dear colleague, I am looking for the recorded Ex (λmax) (with Aβ) of the following molecule: COCCOCCOCCNC(=O)/C(C#N)=C(\C)c1ccc2cc(N3CCCCC3)ccc2c1
RESULT: 364 ± 6 nm

QUERY: Return reported Ex (λmax) (with Aβ); argument: COCCOCCOCCNC(=O)/C(C#N)=C/c1ccc2cc(N3CCCCC3C)ccc2c1 (racemic)
RESULT: 439 ± 3 nm

====

Molecular target: aggregated αS (Homo sapiens)
Experiment: Estimation of binding constant (Kd) to aggregated αS
Details: probes of FIG. 14; aggregated αS 5 μM, increasing concentration of probe, 5% DMSO in nanopure water
measure: Kd (µM)
// note: answer is a bare numeric in µM

QUERY: Bench note: what Kd did CCCC1CCCCN1c1ccc2cc(/C=C(\C#N)C(=O)NCCOCCOCCOC)ccc2c1 (stereo not shown) [Probe 4] show?
RESULT: 0.5

QUERY: For the compound shown here, CCC1CCCCN1c1ccc2cc(/C=C(\C#N)C(=O)NCCOCCOCCOC)ccc2c1 (racemic) [Compound 5] , give the reported Kd.
RESULT: 5.8

QUERY: What value of Kd has been reported for the following compound? COCCOCCOCCNC(=O)C(C#N)=Cc1ccc2cc(N3CCCCC3)ccc2c1 (mixture of isomers) [Compound 1]
RESULT: 3.9

QUERY: Find the recorded Kd belonging to COCCOCCOCCNC(=O)/C(C#N)=C/c1ccc2cc(N3CCCCC3C)ccc2c1 (racemic) [Compound 4] and report it.
RESULT: 4.5
